Attribution: ChEMBL document CHEMBL1938339

- tested system: Beta-secretase 1 (Homo sapiens) (UniProt P56817)
- Sequence (P56817 whole entry): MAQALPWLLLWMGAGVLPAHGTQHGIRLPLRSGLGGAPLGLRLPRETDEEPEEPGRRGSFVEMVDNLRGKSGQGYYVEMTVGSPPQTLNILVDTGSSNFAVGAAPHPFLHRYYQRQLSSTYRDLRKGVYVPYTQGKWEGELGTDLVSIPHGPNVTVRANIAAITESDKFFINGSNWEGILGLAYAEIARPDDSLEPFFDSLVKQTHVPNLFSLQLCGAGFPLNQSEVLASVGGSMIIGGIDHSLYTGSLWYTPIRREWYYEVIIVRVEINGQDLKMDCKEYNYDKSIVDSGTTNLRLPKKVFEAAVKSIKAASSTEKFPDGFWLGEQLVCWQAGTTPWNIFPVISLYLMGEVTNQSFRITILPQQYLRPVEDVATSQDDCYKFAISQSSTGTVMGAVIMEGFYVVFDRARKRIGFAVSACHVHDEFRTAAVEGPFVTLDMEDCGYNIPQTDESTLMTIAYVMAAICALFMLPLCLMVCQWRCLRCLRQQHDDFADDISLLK
- procedure text: Inhibition of human recombinant BACE1 at 2 uM by FRET assay
measured endpoint: inhibition (%)

COc1ccc(CC(C)(C)NC(=O)[C@H](CC(C)C)NC(=O)[C@@H](NC(=O)[C@@H](N)CNC(=O)c2[nH]c(=O)[nH]c(=O)c2F)C(C)C)cc1    83

a. CC(C)C[C@H](NC(=O)[C@@H](NC(=O)[C@@H](N)CNC(=O)c1[nH]c(=O)[nH]c(=O)c1F)C(C)C)C(=O)NC(C)(C)Cc1ccc(I)cc1I
b. CC(C)[C@H](NC(=O)[C@@H](N)CCC(=O)O)C(=O)N[C@@H](CC1CCCCC1)C(=O)NC(C)(C)Cc1ccccc1
Exercise: Endpoint returns the identifier whose inhibition is numerically larger, either a or b . State the label of the item chosen.
Solution: a
(a: 91%, b: 16%)
